Here, each record is paired with measured pIC50 data.
measured_on: human CXCR3-A receptor (Homo sapiens (Human), UniProt P49682)
Sequence (P49682 whole entry): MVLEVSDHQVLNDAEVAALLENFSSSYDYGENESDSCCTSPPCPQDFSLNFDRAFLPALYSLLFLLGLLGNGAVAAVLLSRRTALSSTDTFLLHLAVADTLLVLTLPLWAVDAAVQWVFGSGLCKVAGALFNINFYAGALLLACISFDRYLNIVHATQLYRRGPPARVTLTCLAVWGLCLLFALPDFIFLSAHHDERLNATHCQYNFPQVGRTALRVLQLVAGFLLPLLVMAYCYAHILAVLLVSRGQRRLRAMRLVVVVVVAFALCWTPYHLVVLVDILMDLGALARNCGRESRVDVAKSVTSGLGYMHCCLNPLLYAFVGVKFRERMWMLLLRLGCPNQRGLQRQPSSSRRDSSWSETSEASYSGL
test_summary: 125I-CXCL10 competition radioligand binding assay
test_context: displacement of 125I-CXCL10 from membranes of CHO cells expressing human recombinant CXCR3-A
pIC50: −log10 of the molar value.
reported_endpoint: pIC50

compound="Cc1cc(CN(C[C@H]2CC[C@H](C(=O)O)CC2)C(C)c2ccc3c(c2)CCO3)ccc1OCCN1C(=O)CCC1=O (stereo partly shown)" reported_endpoint=pIC50 data_value=7.36
compound="Cc1cc(CN(C(C)c2ccc3c(c2)CCO3)[C@H]2C[C@@H](C(=O)O)C2)ccc1OCCn1c(=O)ccn(C)c1=O (stereo partly shown)" reported_endpoint=pIC50 data_value=6.62
compound="CCc1cc(CN(C[C@H]2CC[C@H](C(=O)O)CC2)C2CCc3c2ccc(F)c3Cl)ccc1OCCN1C(=O)CCC1=O (stereo partly shown)" reported_endpoint=pIC50 data_value=6.35
compound=COc1cc(CN(C[C@@H]2CC[C@H](C(=O)O)C2)[C@@H](C)c2ccc3c(c2)CCO3)ccc1OCCN1C(=O)CCC1=O reported_endpoint=pIC50 data_value=6.84
compound=COc1cc(CN(C[C@@H]2CC[C@H](C(=O)O)C2)[C@@H](C)c2ccc(Cl)cc2)ccc1OCCN1C(=O)CCC1=O reported_endpoint=pIC50 data_value=6.81
compound="CCC(c1ccc(Cl)cc1)N(Cc1ccc(OCCN2C(=O)CN(C)C2=O)c(C)c1)C[C@H]1CC[C@H](C(=O)O)CC1 (stereo partly shown)" reported_endpoint=pIC50 data_value=6.74
compound="COc1cc(CN(C[C@H]2CC[C@H](C(=O)O)CC2)C2CCc3cc(Cl)ccc32)ccc1CCCN1C(=O)CCC1=O (stereo in doubt) [Example 45]" reported_endpoint=pIC50 data_value=6.80
compound="O=C1CCC(=O)N1CCOc1ccc(CN(C[C@H]2CC[C@H](C(=O)O)CC2)C2CCc3cc(Cl)ccc32)cc1Cl (stereo partly shown)" reported_endpoint=pIC50 data_value=6.20
compound="Cc1cc(CN(C[C@H]2CC[C@H](C(=O)O)CC2)C2CCc3cc(Cl)ccc32)ccc1OCCN1C(=O)CN(C)C1=O (stereo partly shown)" reported_endpoint=pIC50 data_value=6.70
compound=COc1cc(CN(C[C@H]2CC[C@H](C(=O)O)CC2)[C@@H](C)c2ccc(Cl)cc2)ccc1C#CCN1C(=O)CCC1=O reported_endpoint=pIC50 data_value=5.18
compound=COc1cc(CN(C[C@H]2CC[C@H](C(=O)O)CC2)[C@@H](C)c2ccc(Cl)cc2)ccc1OCCN1C(=O)CN(C)C1=O reported_endpoint=pIC50 data_value=6.10
compound=COc1cc(CN(C[C@H]2CC[C@@H](C(=O)O)C2)[C@@H](C)c2ccc(Cl)cc2)ccc1OCCN1C(=O)CCC1=O reported_endpoint=pIC50 data_value=5.74
compound="CC(c1ccc2c(c1)CCO2)N(Cc1ccc(OCCN2C(=O)CCC2=O)c(Cl)c1)C[C@H]1CC[C@H](C(=O)O)CC1 (stereo partly shown)" reported_endpoint=pIC50 data_value=7.46

----------
measured_on: human CXCR3-A receptor (Homo sapiens (Human))
test_summary: 125I-CXCL10 competition radioligand binding assay
test_context: displacement of 125I-CXCL10 from membranes of CHO cells expressing human recombinant CXCR3-A
pIC50: −log10 of the molar value.
Use true (1) when the recorded pIC50 is no lower than 7; use false (0) when it is lower.

molecule="Cc1cc(CN(C2CCc3cc(Cl)ccc32)[C@H]2C[C@@H](C(=O)O)C2)ccc1OCCN1C(=O)CCC1=O (some centres unmarked) [Example 133]" class_name="false (0)"
molecule="COc1cc(CN(C[C@H]2CC[C@H](C(=O)O)CC2)[C@H]2CCc3c2ccc(Cl)c3F)ccc1OCCN1C(=O)CCC1=O [Example 148]" class_name="true (1)"
molecule="COc1cc(CN(C[C@H]2CC[C@H](C(=O)O)CC2)[C@H]2CCc3cc(Cl)ccc32)ccc1OCCN1C(=O)CCC1=O [Example 12]" class_name="true (1)"
molecule="COc1cc(CN(C[C@H]2CC[C@H](C(=O)O)CC2)C2CCc3cc(Cl)ccc32)ccc1CCCN1C(=O)CCC1=O (stereo in doubt) [Example 46]" class_name="false (0)"
molecule="CCc1cc(CN(C[C@H]2CC[C@H](C(=O)O)CC2)C(C)c2ccc(Cl)c(F)c2)ccc1OCCN1C(=O)CCC1=O (some centres unmarked) [Example 89]" class_name="true (1)"
molecule="COc1cc(CN(C[C@H]2CC[C@H](C(=O)O)CC2)[C@H](C)c2ccc(Cl)cc2)ccc1OCCN1C(=O)CCC1=O [Example 6]" class_name="true (1)"
molecule="COc1cc(CN(C[C@H]2CC[C@H](C(=O)O)CC2)C(C)c2ccc(C#N)cc2)ccc1OCCn1c(=O)ccn(C)c1=O (some centres unmarked) [Example 62]" class_name="false (0)"
molecule="COc1cc(CN(C[C@H]2CC[C@H](C(=O)O)CC2)C(C)c2ccc3c(c2)CCO3)ccc1OCCN1C(=O)CSC1=O (some centres unmarked) [Example 15]" class_name="true (1)"
molecule="Cc1cc(CN(C[C@H]2CC[C@H](C(=O)O)CC2)[C@@H]2CCc3cc(Cl)ccc32)ccc1OCCN1C(=O)CCC1=O [Example 31]" class_name="false (0)"
molecule="COc1cc(CN(C[C@@H]2C[C@@H]2C(=O)O)C(C)c2ccc3c(c2)CCO3)ccc1OCCN1C(=O)CCC1=O (some centres unmarked) [Example 114]" class_name="false (0)"
molecule="COc1cc(CN(C[C@H]2CC[C@H](C(=O)O)CC2)C(C)c2ccc3c(c2)CCO3)ccc1C1CC1CN1C(=O)CCC1=O (some centres unmarked) [Example 49]" class_name="false (0)"
molecule="Cc1cc(CN(C[C@H]2CC[C@H](C(=O)O)CC2)C(C)c2ccc3c(c2)CCO3)ccc1OCCN1C(=O)CSC1=O (some centres unmarked) [Example 33]" class_name="true (1)"
molecule="COc1cc(CN(C[C@H]2CC[C@H](C(=O)O)CC2)C(C)c2ccc3c(c2)CCO3)ccc1/C=C/CN1C(=O)CCC1=O (some centres unmarked) [Example 35]" class_name="false (0)"
molecule="COc1cc(CN(C[C@H]2CC[C@H](C(=O)O)CC2)C(C)c2ccc(Cl)c(Cl)c2)ccc1OCCN1C(=O)CCC1=O (some centres unmarked) [Example 77]" class_name="false (0)"
molecule="COc1cc(CN(C[C@@H]2CC[C@@H](C(=O)O)C2)[C@@H](C)c2ccc(Cl)cc2)ccc1OCCN1C(=O)CCC1=O [Example 99]" class_name="false (0)"
molecule="COc1cc(CN(C[C@H]2CC[C@@H](C(=O)O)C2)[C@H](C)c2ccc3c(c2)CCO3)ccc1OCCN1C(=O)CCC1=O [Example 103]" class_name="false (0)"
molecule="Cc1cc(CN(C[C@H]2CC[C@@H](C(=O)O)CC2)[C@@H](C)c2ccc(Cl)cc2)ccc1OCCN1C(=O)CCC1=O [Example 8]" class_name="false (0)"

----------
measured_on: human CXCR3-A receptor (Homo sapiens (Human))
test_summary: 125I-CXCL10 competition radioligand binding assay
test_context: displacement of 125I-CXCL10 from membranes of CHO cells expressing human recombinant CXCR3-A
Procedure: IC50 values were determined for the test compounds and used to explore the structure-activity relationships (SAR). […] This cell line was registered in Sanofi-Aventis cell line bank. […] Protein concentration was determined with Bio-Rad protein assay (Cat No 500-0006). […] The composition of the binding assay buffer was determined in a course of detailed optimization procedure. […] The radioactivity retained on the filters was measured by a Wizard 1470 Automatic Gamma counter. […]
pIC50: −log10 of the molar value.
Here, each record is paired with measured pIC50 data.
reported_endpoint: pIC50

compound="COc1cc(CN(C[C@H]2CC[C@H](C(=O)O)CC2)C2CCc3cc(Cl)ccc32)ccc1OCCN1C(=O)CN(C)C1=O (stereo partly drawn)" data_value=6.75
compound="COc1cc(CN(C[C@H]2CC[C@H](C(=O)O)CC2)C(C)c2ccc(Cl)c(C)c2)ccc1OCCN1C(=O)CCC1=O (stereo partly drawn)" data_value=7.60
compound="COc1cc(CN(C2CC(C(=O)O)C2)C2CCc3cc(Cl)ccc32)ccc1OCCN1C(=O)CCC1=O (stereo not drawn)" data_value=5.96
compound=COc1cc(CN([C@H]2C[C@@H](C(=O)O)C2)[C@H](C)c2ccc3c(c2)CCC3)ccc1OCCn1c(=O)ccn(C)c1=O data_value=6.26
compound="COc1cc(CN(C[C@H]2CC[C@H](C(=O)O)CC2)C2CCc3cc(Cl)c(C)cc32)ccc1OCCN1C(=O)CCC1=O (stereo partly drawn)" data_value=7.06
compound="COc1cc(CN(CC2CC(C(=O)O)C2)[C@H]2CCc3cc(Cl)ccc32)ccc1OCCN1C(=O)CCC1=O (stereo partly drawn)" data_value=5.97
compound=Cc1cc(CN([C@H]2C[C@@H](C(=O)O)C2)[C@H](C)c2ccc(Cl)cc2)ccc1CCCN1C(=O)CCC1=O data_value=5.52
compound="COc1cc(CN(C[C@H]2CC[C@H](C(=O)O)CC2)C(C)c2ccc(C)cc2)ccc1OCCN1C(=O)CCC1=O (stereo partly drawn)" data_value=6.97
compound="CCC(c1ccc(Cl)cc1)N(Cc1ccc(OCCn2c(=O)ccn(C)c2=O)c(OC)c1)C[C@H]1CC[C@H](C(=O)O)CC1 (stereo partly drawn)" data_value=6.84
compound="COc1cc(CN(C[C@H]2CC[C@H](C(=O)O)CC2)C2CCc3cc(Cl)ccc32)ccc1OCCN1C(=O)CSC1=O (stereo partly drawn)" data_value=7.24
compound="CCC(c1ccc(Cl)cc1)N(Cc1ccc(OCCN2C(=O)CCC2=O)c(OC)c1)C[C@H]1CC[C@H](C(=O)O)CC1 (stereo partly drawn)" data_value=7.21
compound="COc1cc(CN(C[C@H]2CC[C@H](C(=O)O)CC2)C2CCc3cc(Cl)ccc32)ccc1CCCN1C(=O)CN(C)C1=O (stereo partly drawn)" data_value=5.91
compound=CCc1cc(CN(C[C@H]2CC[C@H](C(=O)O)CC2)[C@H]2CCc3c2ccc(Cl)c3F)ccc1OCCN1C(=O)CCC1=O data_value=6.78
compound=Cc1cc([C@H](C)N(Cc2ccc(OCCN3C(=O)CCC3=O)c(C)c2)[C@H]2C[C@H](C(=O)O)C2)ccc1Cl data_value=5.28
compound="COc1cc(CN(CC2(C(=O)O)CC2)C2CCc3cc(Cl)ccc32)ccc1OCCN1C(=O)CCC1=O (stereo not drawn)" data_value=5.49
compound=O=C1CCC(=O)N1CCOc1ccc(CN(C[C@H]2CC[C@H](C(=O)O)CC2)[C@H]2CCc3cc(Cl)ccc32)cc1F data_value=6.08
compound=COc1cc(CN(C[C@H]2CC[C@H](C(=O)O)CC2)[C@@H](C)c2ccc(Cl)cc2)ccc1OCCN1C(=O)CCC1=O data_value=7.72
compound=Cc1cc(CN(C[C@H]2CC[C@H](C(=O)O)CC2)[C@@H](C)c2ccc(Cl)cc2)ccc1OCCn1c(=O)ccn(C)c1=O data_value=6.77
compound="COc1cc(CN(C[C@H]2CC[C@H](C(=O)O)CC2)C2CCc3cc(Cl)ccc32)ccc1CCCN1C(=O)CCC1=O (stereo partly drawn) [Example 44]" data_value=6.39
compound="COc1cc(CN(C(C)c2ccc(Cl)c(F)c2)[C@H]2C[C@@H](C(=O)O)C2)ccc1OCCN1C(=O)CCC1=O (stereo partly drawn)" data_value=6.92
compound="Cc1cc(CN(C(C)c2ccc(Cl)c(Cl)c2)[C@H]2C[C@@H](C(=O)O)C2)ccc1OCCN1C(=O)CCC1=O (stereo partly drawn)" data_value=6.17
compound=COc1cc(CN(C[C@H]2CC[C@H](C(=O)O)CC2)[C@@H]2CCc3cc(Cl)ccc32)ccc1OCCN1C(=O)CCC1=O data_value=6.70
compound="Cc1cc(CN(C[C@H]2CC[C@H](C(=O)O)CC2)C2CCc3cc(Cl)ccc32)ccc1OCCN1C(=O)CCC1=O (stereo partly drawn)" data_value=6.82
compound=COc1cc(CN([C@H]2C[C@@H](C(=O)O)C2)[C@H](C)c2ccc3c(c2)CCO3)ccc1OCCn1c(=O)ccn(C)c1=O data_value=7.15
compound="COc1cc(CN(C[C@H]2CC[C@H](C(=O)O)CC2)C2CCc3cc(Cl)ccc32)ccc1OCCn1c(=O)ccn(C)c1=O (stereo partly drawn)" data_value=6.39
compound="CCc1cc(CN(C(C)c2ccc(Cl)c(Cl)c2)[C@H]2C[C@@H](C(=O)O)C2)ccc1OCCN1C(=O)CCC1=O (stereo partly drawn)" data_value=5.92
compound="Cc1ccc(C(C)N(Cc2ccc(OCCN3C(=O)CCC3=O)c(C)c2)C[C@H]2CC[C@H](C(=O)O)CC2)cc1 (stereo partly drawn)" data_value=6.84
